- Assay procedure: in vitro
- Measurement conditions: mouse
Decision: CC50 beneath 50 µM gives Y; CC50 meeting or exceeding 50 µM gives N.

| Compound | Category |
| --- | --- |
| CNCC(O)c1cc(C(F)(F)F)nc2c(C(F)(F)F)cccc12 (centres unmarked) [WR308245] | N |
| OC(CNCCNCc1ccccc1)c1cc(C(F)(F)F)nc2c(C(F)(F)F)cccc12 (centres unmarked) [WR308396] | N |
| CCC(C)CNCC(O)c1cc(C(F)(F)F)nc2c(C(F)(F)F)cccc12 (centres unmarked) [WR308387] | N |
| OC(c1cc(C(F)(F)F)nc2c(C(F)(F)F)cccc12)C1CCCCN1 (centres unmarked) [Mefloquine, mefloquine, reference compound] | Y |
| OC(CNC1CCC1)c1cc(C(F)(F)F)nc2c(C(F)(F)F)cccc12 (centres unmarked) [WR308266] | N |
| C=CCNCC(O)c1cc(C(F)(F)F)nc2c(C(F)(F)F)cccc12 (centres unmarked) [WR308255] | N |
| CC1C(NCC(O)c2cc(C(F)(F)F)nc3c(C(F)(F)F)cccc23)CC2CC1C2(C)C (centres unmarked) [WR308446] | Y |
| CSCCCNCC(O)c1cc(C(F)(F)F)nc2c(C(F)(F)F)cccc12 (centres unmarked) [WR308278] | N |
| CCC(CC)CNCC(O)c1cc(C(F)(F)F)nc2c(C(F)(F)F)cccc12 (centres unmarked) [WR308388] | N |
| CC(C)CC(C)NCC(O)c1cc(C(F)(F)F)nc2c(C(F)(F)F)cccc12 (centres unmarked) [WR308413] | N |
| CC(C)NCC(O)c1cc(C(F)(F)F)nc2c(C(F)(F)F)cccc12 (centres unmarked) [WR308257] | N |

----------
- Target entity: CYP450 2D6 (Homo sapiens)
- Sequence (P10635 whole entry): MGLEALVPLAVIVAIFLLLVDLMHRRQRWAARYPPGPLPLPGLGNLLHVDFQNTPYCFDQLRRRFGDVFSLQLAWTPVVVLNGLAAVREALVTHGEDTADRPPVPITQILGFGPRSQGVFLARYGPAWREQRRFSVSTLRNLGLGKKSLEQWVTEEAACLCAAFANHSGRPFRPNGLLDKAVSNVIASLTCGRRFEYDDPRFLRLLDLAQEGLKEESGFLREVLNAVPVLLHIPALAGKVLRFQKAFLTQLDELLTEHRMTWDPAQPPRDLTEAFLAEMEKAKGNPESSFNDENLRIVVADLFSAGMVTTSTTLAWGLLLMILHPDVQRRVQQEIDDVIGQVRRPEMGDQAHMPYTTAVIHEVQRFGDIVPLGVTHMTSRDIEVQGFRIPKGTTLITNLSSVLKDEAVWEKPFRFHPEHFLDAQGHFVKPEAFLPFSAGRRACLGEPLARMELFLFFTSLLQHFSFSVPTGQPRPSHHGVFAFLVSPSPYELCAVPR
- Assay procedure: CYP450 inhibition kit (drug-drug interaction), 2D6

| Molecule | IC50 |
| --- | --- |
| C=CCNCC(O)c1cc(C(F)(F)F)nc2c(C(F)(F)F)cccc12 (stereo not shown) [WR308255] | 2900 nM |
| CCC(CC)CNCC(O)c1cc(C(F)(F)F)nc2c(C(F)(F)F)cccc12 (stereo not shown) [WR308388] | 800 nM |
| CNCC(O)c1cc(C(F)(F)F)nc2c(C(F)(F)F)cccc12 (stereo not shown) [WR308245] | 7400 nM |
| OC(CNC1CCC1)c1cc(C(F)(F)F)nc2c(C(F)(F)F)cccc12 (stereo not shown) [WR308266] | 1400 nM |
| CC1C(NCC(O)c2cc(C(F)(F)F)nc3c(C(F)(F)F)cccc23)CC2CC1C2(C)C (stereo not shown) [WR308446] | 9100 nM |
| CC(C)CC(C)NCC(O)c1cc(C(F)(F)F)nc2c(C(F)(F)F)cccc12 (stereo not shown) [WR308413] | 1000 nM |
| CCC(C)CNCC(O)c1cc(C(F)(F)F)nc2c(C(F)(F)F)cccc12 (stereo not shown) [WR308387] | 2000 nM |
| CC(C)NCC(O)c1cc(C(F)(F)F)nc2c(C(F)(F)F)cccc12 (stereo not shown) [WR308257] | 1900 nM |
| CSCCCNCC(O)c1cc(C(F)(F)F)nc2c(C(F)(F)F)cccc12 (stereo not shown) [WR308278] | 1400 nM |
| OC(CNCCNCc1ccccc1)c1cc(C(F)(F)F)nc2c(C(F)(F)F)cccc12 (stereo not shown) [WR308396] | 700 nM |

----------
- System: P. falciparum strain TM90C2A
- Assay procedure: labeled hypoxanthine susceptibility assay, P. falciparum TM90C2A
- Type: cell-based, Plasmodium falciparum
- Measurement conditions: Plasmodium falciparum, TM90C2A, read-out: IC90 Pf C2A

| Molecule | IC90 (µg/mL) |
| --- | --- |
| C=CCNCC(O)c1cc(C(F)(F)F)nc2c(C(F)(F)F)cccc12 (centres unmarked) | 0.037 |
| OC(CNCC12CCC(C1)NC2)c1cc(C(F)(F)F)nc2c(C(F)(F)F)cccc12 (centres unmarked) | 0.251 |
| CCC(CC)CNCC(O)c1cc(C(F)(F)F)nc2c(C(F)(F)F)cccc12 (centres unmarked) | 0.01 |
| CC1C(NCC(O)c2cc(C(F)(F)F)nc3c(C(F)(F)F)cccc23)CC2CC1C2(C)C (centres unmarked) | 0.016 |
| CSCCCNCC(O)c1cc(C(F)(F)F)nc2c(C(F)(F)F)cccc12 (centres unmarked) | 0.054 |
| CC(C)CC(C)NCC(O)c1cc(C(F)(F)F)nc2c(C(F)(F)F)cccc12 (centres unmarked) | 0.0075 |
| OC(c1cc(C(F)(F)F)nc2c(C(F)(F)F)cccc12)C1CCCCN1 (centres unmarked) [Mefloquine, mefloquine, reference compound] | 0.074 |
| CCC(C)CNCC(O)c1cc(C(F)(F)F)nc2c(C(F)(F)F)cccc12 (centres unmarked) | 0.011 |

----------
- Test system: P. falciparum strain W2
- Assay procedure: labeled hypoxanthine susceptibility assay, P. falciparum W2
- Format: cell-based, Plasmodium falciparum
- Measurement conditions: Plasmodium falciparum, W2, read-out: IC90 Pf W2
Mark yes for IC90 under 10 ng/mL, no if at or over.

| Molecule | Category |
| --- | --- |
| CNCC(O)c1cc(C(F)(F)F)nc2c(C(F)(F)F)cccc12 (stereo not drawn) [WR308245] | no |
| CC(C)CC(C)NCC(O)c1cc(C(F)(F)F)nc2c(C(F)(F)F)cccc12 (stereo not drawn) [WR308413] | yes |
| OC(CNCCNCc1ccccc1)c1cc(C(F)(F)F)nc2c(C(F)(F)F)cccc12 (stereo not drawn) [WR308396] | yes |
| CSCCCNCC(O)c1cc(C(F)(F)F)nc2c(C(F)(F)F)cccc12 (stereo not drawn) [WR308278] | yes |
| OC(CNC1CCC1)c1cc(C(F)(F)F)nc2c(C(F)(F)F)cccc12 (stereo not drawn) [WR308266] | yes |
| OC(c1cc(C(F)(F)F)nc2c(C(F)(F)F)cccc12)C1CCCCN1 (stereo not drawn) [Mefloquine, mefloquine, reference compound] | yes |
| CC(C)NCC(O)c1cc(C(F)(F)F)nc2c(C(F)(F)F)cccc12 (stereo not drawn) [WR308257] | yes |
| OC(CNCC1CCCN1)c1cc(C(F)(F)F)nc2c(C(F)(F)F)cccc12 (stereo not drawn) [WR308621] | no |
| CCCCNCCNCC(O)c1cc(C(F)(F)F)nc2c(C(F)(F)F)cccc12 (stereo not drawn) [WR318746] | no |

----------
- System: rodent macrophage (RAW) cell line
- Assay procedure: cells
- Measurement conditions: Mus musculus, Macrophage, read-out: Macrophage IC50
Here the recorded IC50 is given for each entry.

| Molecule | IC50 |
| --- | --- |
| CC(C)CC(C)NCC(O)c1cc(C(F)(F)F)nc2c(C(F)(F)F)cccc12 (centres unmarked) [WR308413] | 8.5 µM |
| OC(CNCCc1ccccc1)c1cc(C(F)(F)F)nc2c(C(F)(F)F)cccc12 (racemic) [compound 308253] | 22.5 µM |
| OC(CNC1CCC1)c1cc(C(F)(F)F)nc2c(C(F)(F)F)cccc12 (centres unmarked) [WR308266] | 13.1 µM |
| N#CCCN(CC(O)c1cc(C(F)(F)F)nc2c(C(F)(F)F)cccc12)C1CCCCC1 (racemic) [compound 308486] | 18.7 µM |
| Cc1ccc(CNCC(O)c2cc(C(F)(F)F)nc3c(C(F)(F)F)cccc23)cc1 (racemic) [compound 308375] | > 100 µM |
| CC1C(NCC(O)c2cc(C(F)(F)F)nc3c(C(F)(F)F)cccc23)CC2CC1C2(C)C (centres unmarked) [WR308446] | 8.85 µM |
| CNCC(O)c1cc(C(F)(F)F)nc2c(C(F)(F)F)cccc12 (centres unmarked) [WR308245] | 40.4 µM |
| CCCCN(CCC#N)CC(O)c1cc(C(F)(F)F)nc2c(C(F)(F)F)cccc12 (racemic) [compound 308485] | 46.6 µM |

----------
- Target entity: CYP450 2C9 (Homo sapiens)
- Sequence (P11712 whole entry): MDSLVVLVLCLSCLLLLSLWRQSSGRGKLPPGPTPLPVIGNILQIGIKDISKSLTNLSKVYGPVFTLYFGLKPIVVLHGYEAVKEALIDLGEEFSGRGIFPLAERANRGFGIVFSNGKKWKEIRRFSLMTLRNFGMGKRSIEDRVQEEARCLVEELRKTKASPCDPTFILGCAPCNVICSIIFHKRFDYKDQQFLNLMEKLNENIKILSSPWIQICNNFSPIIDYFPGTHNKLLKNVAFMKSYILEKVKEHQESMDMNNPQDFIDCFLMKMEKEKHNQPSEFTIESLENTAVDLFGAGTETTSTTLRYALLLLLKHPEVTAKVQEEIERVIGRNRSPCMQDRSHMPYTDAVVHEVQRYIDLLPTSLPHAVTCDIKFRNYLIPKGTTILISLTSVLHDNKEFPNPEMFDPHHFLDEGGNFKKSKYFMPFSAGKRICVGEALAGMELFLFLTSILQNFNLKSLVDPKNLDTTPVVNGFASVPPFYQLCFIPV
- Assay procedure: CYP450 inhibition kit (drug-drug interaction), 2C9
pIC50: −log10 of the molar value.
A collection of molecules and their measured pIC50

| Molecule | pIC50 |
| --- | --- |
| CC(C)NCC(O)c1cc(C(F)(F)F)nc2c(C(F)(F)F)cccc12 (centres unmarked) [WR308257] | 4.43 |
| CCC(CC)CNCC(O)c1cc(C(F)(F)F)nc2c(C(F)(F)F)cccc12 (centres unmarked) [WR308388] | 4.89 |
| CC(C)CC(C)NCC(O)c1cc(C(F)(F)F)nc2c(C(F)(F)F)cccc12 (centres unmarked) [WR308413] | 4.72 |
| CCC(C)CNCC(O)c1cc(C(F)(F)F)nc2c(C(F)(F)F)cccc12 (centres unmarked) [WR308387] | 4.96 |
| OC(CNCCNCc1ccccc1)c1cc(C(F)(F)F)nc2c(C(F)(F)F)cccc12 (centres unmarked) [WR308396] | 4.85 |
